- Measured On: human complement factor D (Homo sapiens)
- Construct: purchased R&D Systems 1824-SE
- Test Summary: In vitro enzyme inhibition (Z-Lys-SBzl/DTNB absorbance assay)
- Assay type: biochemical
- Test Parameters: Complement Factor D (R&D Systems), substrate Z-Lys-SBzl, A405 nm; read-out: CFD IC50
pIC50: −log10 of the molar value.
Property Name: pIC50

Consider the following illustrative entries.
Molecule	Measured On	pIC50
NC(=O)c1nn(CC(=O)N2[C@H](CO)C[C@H]2C(=O)NCc2cccc(Cl)c2F)c2ccccc12 [Example 197]	human complement factor D (Homo sapiens)	5.00 to 6.00
NC(=O)CC(NC(=O)[C@@H]1[C@H]2CC[C@H](C2)N1C(=O)Cn1nc(C(N)=O)c2ccccc21)c1cccc(Cl)c1F (some centres unmarked) [Example 144]	human complement factor D (Homo sapiens)	5.00 to 6.00
NC(=O)c1nn(CC(=O)N2[C@H](C(=O)Nc3cccc(Cl)c3F)C[C@@H]3CCC[C@@H]32)c2ccccc12 [Example 158]	human complement factor D (Homo sapiens)	6.00 to 7.00
NC(=O)c1nn(CC(=O)N2[C@H]3CC[C@H](C3)[C@@H]2C(=O)Nc2cccc(C(F)(F)F)n2)c2ccccc12 [Example 17]	human complement factor D (Homo sapiens)	5.00 to 6.00
NC(=O)c1nn(CC(=O)N2[C@@H]3CC[C@@H](C3)[C@H]2C(=O)Nc2cccc(Cl)c2F)c2ccccc12 [Example 18]	human complement factor D (Homo sapiens)	6.00 to 7.00

Alright, here's another molecule for you.
Prompt: Supply pIC50 value. Item: NC(=O)c1nn(CC(=O)N2[C@@H]3CC[C@@H](C3)[C@H]2C(=O)Nc2cc(C(F)(F)F)ccn2)c2ccccc12 [Example 55]
Response: < 5.00

* * *

Here, each record is paired with measured pIC50 data.
- Measured On: human complement factor D (Homo sapiens)
- Construct: purchased R&D Systems 1824-SE
- Test Summary: In vitro enzyme inhibition (Z-Lys-SBzl/DTNB absorbance assay)
- Type: biochemical
- Test Parameters: Complement Factor D (R&D Systems), substrate Z-Lys-SBzl, A405 nm; read-out: CFD IC50
pIC50: −log10 of the molar value.

Prompt: Supply pIC50 value. Item: NC(=O)c1nn(CC(=O)N2[C@@H]3CC[C@@H](C3)[C@H]2C(=O)Nc2cccc(Cl)n2)c2cnccc12 [Example 2]
Response: 6.00 to 7.00

* * *

- Measured On: human complement factor D (Homo sapiens, UniProt P00746)
- Construct: purchased R&D Systems 1824-SE
- Sequence (P00746 26-253): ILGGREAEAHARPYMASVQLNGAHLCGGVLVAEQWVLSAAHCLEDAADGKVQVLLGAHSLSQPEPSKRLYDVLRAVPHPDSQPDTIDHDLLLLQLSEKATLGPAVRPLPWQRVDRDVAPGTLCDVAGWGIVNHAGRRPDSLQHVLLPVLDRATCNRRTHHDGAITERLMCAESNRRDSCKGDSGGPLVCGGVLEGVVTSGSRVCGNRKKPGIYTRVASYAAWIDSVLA
- Test Summary: In vitro enzyme inhibition (Z-Lys-SBzl/DTNB absorbance assay)
- Format: biochemical
- Test Parameters: Complement Factor D (R&D Systems), substrate Z-Lys-SBzl, A405 nm; read-out: CFD IC50
Here, each record is paired with measured IC50 data.

Compound	Measured On	IC50
NC(=O)c1nn(CC(=O)N2[C@@H](C(=O)Nc3cccc(Cl)n3)C[C@H]3CCC[C@H]32)c2ccccc12	human complement factor D (Homo sapiens, UniProt P00746)	> 10 µM
NC(=O)c1nn(CC(=O)N2[C@@H]3CC[C@@H](C3)[C@H]2C(=O)NCc2ccc(Cl)c(Cl)c2)c2ccccc12	human complement factor D (Homo sapiens, UniProt P00746)	1 to 10 µM
NC(=O)c1nn(CC(=O)N2[C@H](C(N)=O)C[C@H]2C(=O)NCc2cccc(Cl)c2F)c2ccccc12 (relative stereo)	human complement factor D (Homo sapiens, UniProt P00746)	1 to 10 µM

Alright, here's another compound for you.
Prompt: For human complement factor D (Homo sapiens, UniProt P00746), give IC50 of the listed compound: NC(=O)c1nn(CC(=O)N2[C@@H]3CC[C@@H](C3)[C@H]2C(=O)NCc2cccc(Cl)n2)c2ccccc12
Response: > 10 µM
